These data points were gathered from PubChem BioAssay AID504473.

The molecules listed here are annotated with their GFP ratio to DMSO.
System: YPL150W
Test: TOR pathway GFP reporter clone modulation in yeast – S. cerevisiae, GFP-tagged clone panel, flow cytometry (AID 504473);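 also: median GFP fluorescence of the cells measured by high-throughput flow cytometry; test concentration not given here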
Conditions: S. cerevisiae GFP-tagged strains, 3 h
Give the figure by itself; no unit, no explanation.

Here are 4 molecules together with their reported answers.
{"columns": ["molecule-smiles", "GFP ratio to DMSO"],
 "data": [
  ["CNc1nc(N)c([N+](=O)[O-])c(Nc2ccccc2)n1", 0.843],
  ["CNc1nc(N)c([N+](=O)[O-])c(Nc2ccccc2OC)n1", 0.677],
  ["CNc1nc(N)c([N+](=O)[O-])c(Nc2cccc(Cl)c2)n1", 0.863],
  ["CNc1nc(N)c([N+](=O)[O-])c(Nc2cccc(F)c2)n1", 0.959]
]}

Next, consider the following molecule.
Supply reported GFP ratio to DMSO belonging to this molecule: `CO[C@H]1C[C@@H]2CC[C@@H](C)[C@@](O)(O2)C(=O)C(=O)N2CCCC[C@H]2C(=O)O[C@H]([C@H](C)C[C@@H]2CC[C@@H](O)[C@H](OC)C2)CC(=O)[C@H](C)/C=C(\C)[C@@H](O)[C@@H](OC)C(=O)[C@H](C)C[C@H](C)/C=C/C=C/C=C/1C` 1.04
